Where do these numbers come from? They come from patent US20100267753A1.

TI (TC50/IC50): recorded values
Tested on: 91US005 (CCR5-tropic HIV-1 Subtype B virus)
Assay: PBMC assay, HIV-1 91US005
Assay type: cell-based
Conditions: Virus 91US005, PBMCs
measured_quantity: TI (TC50/IC50)

{"columns": ["compound", "relation_operator", "val"],
 "data": [
  ["Cc1cn([C@H]2C[C@H](N=[N+]=[N-])[C@@H](CO)O2)c(=O)[nH]c1=O [AZT, reference compound]", ">", 611],
  ["O=C([O-])c1ccc2c(c1)nc(Nc1cccc(C(F)(F)F)c1)c1nc(NC3CC3)ncc12.[Na+] [Compound 2 Na]", "=", 59.6],
  ["O=C(O)c1ccc2c(c1)nc(Nc1cccc(Cl)c1)c1ccncc12 [Compound K Na]", "=", 7.13],
  ["C#Cc1cccc(Nc2nc3cc(C(=O)[O-])ccc3c3cncnc23)c1.[Na+] [Compound 1 Na]", "=", 35.8]
]}

* * *

Assay: Pharmacokinetics in mouse (IV bolus or oral dose)
Format: in vivo
Conditions: in vivo; Mouse, 5 mg/kg IV, 25 mM sodium phosphate buffer
Description: The pharmacokinetics properties of drugs were investigated in three species, following an intravenous (IV) bolus or oral (PO) dose of Compound K at the dosages indicated in the chart. Blood samples were collected at predetermined times and the plasma separated. […] Drug levels were quantified by the LC/MS/MS method described below. […] The terminal t1/2 and C0 were calculated using the last three and the first three data points, respectively […]

{"columns": ["mol", "AUC(0-inf), ng·h/mL"],
 "data": [
  ["O=C(O)c1ccc2c(c1)nc(Nc1cccc(Cl)c1)c1ccncc12", 2000]
]}

* * *

Assay: Pharmacokinetics in mouse (IV bolus or oral dose)
Type: in vivo
Settings: mouse, plasma; mice, IV 5.4 mg/kg; read-out: Vd
measured_quantity: Vd (L/kg)

{"columns": ["mol", "val"],
 "data": [
  ["C#Cc1cccc(Nc2nc3cc(C(=O)O)ccc3c3cncnc23)c1", 4.67]
]}

* * *

Experiment: Pharmacokinetics in rat (IV bolus or oral dose)
Assay type: in vivo
Details: plasma, 10.5 mg/kg PO, 25 mM phosphate buffer

{"columns": ["mol", "AUC(0-inf), ng·h/mL"],
 "data": [
  ["O=C(O)c1ccc2c(c1)nc(Nc1cccc(Cl)c1)c1ccncc12", 42300]
]}

* * *

Assay: Pharmacokinetics in mouse (IV bolus or oral dose)
Type: in vivo
Conditions: mouse, plasma, iv, 5.4 mg/kg, mice, IV 5.4 mg/kg; read-out: AUC(0-24 h)
measured_quantity: AUC(0-t)

{"columns": ["mol", "val"],
 "data": [
  ["C#Cc1cccc(Nc2nc3cc(C(=O)O)ccc3c3cncnc23)c1", "15300 ng·h/mL"]
]}

* * *

Test: Pharmacokinetic summary across mouse, rat and dog
Type: in vivo
Conditions: plasma, rat and dog, oral

{"columns": ["mol", "half-life"],
 "data": [
  ["O=C(O)c1ccc2c(c1)nc(Nc1cccc(Cl)c1)c1ccncc12", "5 to 12 h"]
]}

* * *

Test: Pharmacokinetics in mouse (IV bolus or oral dose)
Type: in vivo
Conditions: in vivo; Mouse, 25 mg/kg PO; read-out: Terminal T1/2 (converted)

{"columns": ["compound", "half-life / h"],
 "data": [
  ["O=C(O)c1ccc2c(c1)nc(Nc1cccc(Cl)c1)c1ccncc12 [Compound K]", 7.1]
]}
